- TEST TARGET: KpnFyuA (Klebsiella pneumoniae, UniProt A4GZD6, S653C)
- PROCEDURE SUMMARY: Fluorescence quenching binding, KpnFyuA-FM sensor
- MEASUREMENT SETUP: 50% quenching
READOUT: pKd
// pKd: -log10(molar conc.)

stdin: Consider the molecule CC(C)(C1=N[C@@](C)(C(=O)O)CS1)[C@H](O)[C@@H]1CS[C@H]([C@H]2CSC(c3ccccc3O)=N2)N1.[Fe+3] . State its measured pKd.
stdout: 9.00

---

- TEST TARGET: EcoFepA (Escherichia coli, UniProt P05825, A720C)
- Sequence (P05825 23-746 A720C): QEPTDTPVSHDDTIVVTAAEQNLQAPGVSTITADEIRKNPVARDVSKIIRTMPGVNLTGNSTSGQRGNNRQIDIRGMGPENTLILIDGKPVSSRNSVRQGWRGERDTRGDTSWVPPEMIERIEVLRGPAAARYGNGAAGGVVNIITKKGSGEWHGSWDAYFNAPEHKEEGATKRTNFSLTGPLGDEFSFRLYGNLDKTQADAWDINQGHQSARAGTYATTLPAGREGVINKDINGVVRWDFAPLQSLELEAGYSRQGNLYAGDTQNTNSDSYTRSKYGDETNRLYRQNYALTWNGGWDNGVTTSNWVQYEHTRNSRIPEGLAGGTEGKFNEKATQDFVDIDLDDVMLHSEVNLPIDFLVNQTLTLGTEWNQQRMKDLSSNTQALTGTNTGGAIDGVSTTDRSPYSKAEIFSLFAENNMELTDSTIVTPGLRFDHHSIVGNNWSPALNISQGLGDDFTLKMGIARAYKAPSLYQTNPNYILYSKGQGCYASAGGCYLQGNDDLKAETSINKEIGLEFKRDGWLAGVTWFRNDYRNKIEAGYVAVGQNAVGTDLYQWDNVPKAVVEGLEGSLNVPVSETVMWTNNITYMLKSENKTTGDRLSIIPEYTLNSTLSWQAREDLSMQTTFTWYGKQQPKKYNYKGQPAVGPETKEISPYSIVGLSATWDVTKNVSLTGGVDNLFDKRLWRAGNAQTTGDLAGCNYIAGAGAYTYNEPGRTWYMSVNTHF
- PROCEDURE SUMMARY: Fluorescence quenching binding, EcoFepA-FM sensor
READOUT: pKd
Lab note — pKd values are minus log10 of concentrations in M.

stdin: Provide pKd, system EcoFepA (Escherichia coli, UniProt P05825, A720C), entry O=C(N[C@H]1COC(=O)[C@@H](NC(=O)c2cccc(O)c2O)COC(=O)[C@@H](NC(=O)c2cccc(O)c2O)COC1=O)c1cccc(O)c1O
stdout: 7.57
